Tested on: Erysiphe graminis—ERYSGT
Assay: Powdery Mildew of Wheat, in vivo whole plant, 24 Hour Protectant
Conditions: Erysiphe; 100 ppm spray, wheat, 24 hour protectant; control of fungal infection vs untreated plants; read-out: ERYSGT in vivo 1 Day Protectant
# reported pest or weed control at 100 ppm; entries follow

compound | pest or weed control at 100 ppm
COC(=O)C(COC(=O)C(C)Cc1ccccc1)NC(=O)c1nccc(OC)c1O (centres unmarked) | < 25%
COc1ccnc(C(=O)NC(COC(=O)CC(C)O[Si](C)(C)C(C)(C)C)C(=O)OC(C)C)c1O (centres unmarked) | 25 to 74%
COc1ccnc(C(=O)N[C@H](C(=O)O[C@@H](C)[C@H](OC(=O)C(C)C)[C@@H](Cc2ccccc2)C(=O)OCc2ccccc2)[C@@H](C)OC(C)=O)c1O | < 25%
COc1ccnc(C(=O)Nc2ccc(Oc3cccc(C)c3)cc2)c1O | < 25%
COc1ccnc(C(=O)NC2CC(=O)OCC(C)COC2=O)c1O (centres unmarked) | < 25%
COc1ccnc(C(=O)Nc2ccc(OCc3cccc(C(F)(F)F)c3)cc2)c1O | < 25%
COc1ccc(Oc2cccc(NC(=O)c3nccc(OC)c3O)c2)cc1 | < 25%
COc1ccnc(C(=O)NC(COC(=O)CCc2ccccc2)C(=O)OC(C)COC(=O)C(C)C)c1O (centres unmarked) | < 25%
COc1ccnc(C(=O)N[C@H]2COC(=O)[C@H](Oc3ccccc3)[C@@H](OC(=O)C(C)C)[C@H](C)OC2=O)c1O | < 25%
COc1ccnc(C(=O)Nc2ccc(Oc3cccc(Cl)c3)cc2)c1O | < 25%
COc1ccnc(C(=O)NC2COC(=O)C[C@H](NC(=O)OCc3ccccc3)C(=O)OC2)c1O (some centres unmarked) | 25 to 74%
COc1ccnc(C(=O)NC(COC(=O)CC(C)OC(=O)CCc2ccccc2)C(=O)OC(C)C)c1O (centres unmarked) | < 25%
COc1ccnc(C(=O)N[C@H]2COC(=O)[C@H](Cc3ccccc3)[C@@H](OC(=O)C3CCCC3)[C@H](C)OC2=O)c1O | < 25%
COc1cccc(Oc2ccccc2NC(=O)c2nccc(OC)c2O)c1 | < 25%
COc1ccnc(C(=O)Nc2ccccc2Oc2ccc(Cl)cc2)c1O | < 25%
COc1ccnc(C(=O)NC(COC(=O)C(C)Cc2ccccc2)C(=O)OC(C)C)c1O (centres unmarked) | < 25%
COc1cccc(Oc2ccc(NC(=O)c3nccc(OC)c3O)cc2)c1 | 25 to 74%
COc1ccnc(C(=O)N[C@H]2COC(=O)[C@H](Cc3ccccc3)[C@@H](OC(C)=O)[C@H](C)OC2=O)c1O | < 25%
COc1ccnc(C(=O)N[C@@H]2[C@@H](O)[C@H](O)[C@@H](CO)O[C@@H]2O)c1O | < 25%
COc1ccnc(C(=O)Nc2cccc(Oc3ccc(C(F)(F)F)cc3)c2)c1O | < 25%

* * *

System: Septoria tritici—SEPTTR
Assay: Leaf Blotch of Wheat, in vivo whole plant, 24 Hour Protectant
Settings: Zymoseptoria tritici, 24 h, wheat plants sprayed at 100 ppm, inoculated after 24 hours; control of fungal infection vs untreated plants; read-out: SEPTTR in vivo 1 Day Protectant
measure_name: pest or weed control at 100 ppm

compound | observed_result
CSc1ccnc(C(=O)NC2COC(=O)[C@H](Cc3ccccc3)[C@@H](OC(=O)C(C)C)[C@H](C)OC2=O)c1O (some centres unmarked) [Compound 478] | 25 to 74%
CC(NC(=O)c1ccncc1O)c1ccc(Oc2ccccc2)cc1 (centres unmarked) [Compound 512] | < 25%
CC(NC(=O)c1ccncc1O)c1ccc(Cl)cc1 (centres unmarked) [Compound 509] | < 25%
O=C(Nc1ccc(Oc2ccccc2)cc1)c1cccnc1O [Compound 522] | < 25%
COc1ccc(C(C)NC(=O)c2ccncc2O)cc1 (centres unmarked) [Compound 508] | < 25%
CC(C)C(=O)O[C@H]1[C@H](C)OC(=O)[C@@H](NC(=O)c2nc(Cl)c(Cl)nc2O)COC(=O)[C@@H]1Cc1ccccc1 [Compound 538] | 25 to 74%
CC(C)C(=O)O[C@H]1[C@H](C)OC(=O)[C@@H](NC(=O)c2cnccc2O)COC(=O)[C@@H]1Cc1ccccc1 [Compound 503] | < 25%
CC(C)C(=O)O[C@H]1[C@H](C)OC(=O)[C@@H](NC(=O)c2nscc2O)COC(=O)[C@@H]1Cc1ccccc1 [Compound 550] | 25 to 74%
CC1(C)CC(NC(=O)c2nc3ccccc3nc2O)CC(C)(C)C1 [Compound 563] | < 25%
CC1(C)CC(NC(=O)c2conc2O)CC(C)(C)C1 [Compound 560] | 25 to 74%
CC1(C)CC(NC(=O)c2nsnc2O)CC(C)(C)C1 [Compound 552] | < 25%
O=C(NCc1ccccc1)c1ccncc1O [Compound 506] | < 25%
COC(=O)C(COC(=O)CCc1ccccc1)NC(=O)c1nccc(OC)c1OC(C)=O (centres unmarked) [Compound 583] | < 25%
CSc1ccnc(C(=O)NC2CC(C)(C)CC(C)(C)C2)c1O [Compound 477] | 25 to 74%
COc1ccnc(C(=O)N[C@@H]2OC[C@@H](OCc3ccccc3)[C@H](OCc3ccccc3)[C@H]2OCc2ccccc2)c1OC(C)=O [Compound 592] | 25 to 74%
CCOc1ccnc(C(=O)Nc2ccc(Oc3cccc(C(F)(F)F)c3)cc2)c1O [Compound 476] | < 25%
O=C(Nc1ccc(Oc2cccc(C(F)(F)F)c2)cc1)c1nccnc1O [Compound 535] | 25 to 74%

* * *

System: Septoria tritici—SEPTTR
Assay: Leaf Blotch of Wheat, in vivo whole plant, 24 Hour Protectant
Settings: Zymoseptoria tritici, 24 h, 100 ppm spray, 24 hour protectant, wheat; control of fungal infection vs untreated plants; read-out: SEPTTR in vivo 1 Day Protectant
This listing pairs compounds with measured pest or weed control at 100 ppm.

compound | pest or weed control at 100 ppm
COc1ccnc(C(=O)N[C@H]2CO[C@](C)(C(C)CC3=C(C)CCCC3(C)C)OC2)c1O (stereo partly shown) | 25 to 74%
COc1ccnc(C(=O)NC2CC(C)(C)C3OC3[C@H](C)[C@H]2C)c1O (stereo partly shown) | 25 to 74%
C[C@H]1C2CC([C@H]3CCC[C@@H]23)[C@@H]1NC(=O)c1ncccc1O (stereo partly shown) | < 25%
COc1ccnc(C(=O)N[C@@H]2CC3CC2C[C@@H]3COCc2cccc(C(F)(F)F)c2)c1O (stereo partly shown) | 25 to 74%
COc1cccc(CNC(=O)c2ncccc2O)c1 | < 25%
COc1ccnc(C(=O)NC2COC3(CC(C)(C)CC(C)(C)C3)OC2)c1O | < 25%
O=C(NCc1cccc2ccccc12)c1ncccc1O | < 25%
COc1ccnc(C(=O)NC2CC(C)(C)C(OC(=O)CC(C)C)C(C)(C)C2)c1O (stereo not shown) | < 25%
COc1ccnc(C(=O)NC2CCCC2O)c1O (stereo not shown) | < 25%
COc1ccnc(C(=O)NC(C)c2ccc(C(F)(F)F)cc2)c1O (stereo not shown) | 25 to 74%
Cc1ccnc(C(=O)NC2CC(C)(C)CC(C)(C)C2)c1O | < 25%
CC(NC(=O)c1ncccc1O)c1ccc(Cl)cc1 (stereo not shown) | 25 to 74%
COc1ccnc(C(=O)NC2CCN(Cc3ccc(C)cc3)CC2)c1O | 25 to 74%
COc1ccnc(C(=O)NC2CCC(Sc3ccccc3)CC2)c1O (stereo not shown) | 25 to 74%
COc1ccnc(C(=O)NC2CC(C)(C)C(Cl)C(Cl)[C@H](C)[C@H]2C)c1O (stereo partly shown) | 25 to 74%
COc1cccc(CNC(=O)c2ncccc2O)c1OC | < 25%
COCCCc1ccc2c(c1)OC(C)C(NC(=O)c1nccc(OC)c1O)C2=O (stereo not shown) | 25 to 74%
COc1ccnc(C(=O)N[C@@H]2CC(C)(C)C[C@](C)(C(=O)N(C)CCc3ccccc3)C2)c1O | 25 to 74%
CCCCCCCCCNC(=O)c1ncccc1O | < 25%

* * *

Test system: Leptosphaeria nodorum—LEPTNO
Assay: Glume Blotch of Wheat, in vivo whole plant, 24 Hour Protectant
Details: Leptosphaeria; 100 ppm spray, 24 hour protectant, wheat; control of fungal infection vs untreated plants; read-out: LEPTNO in vivo 1 Day Protectant
# pest or weed control at 100 ppm annotations

compound | pest or weed control at 100 ppm
O=C(Nc1nccs1)c1ncccc1O | < 25%
COc1ccc(CNC(=O)c2ncccc2O)cc1 | < 25%
COc1ccnc(C(=O)NC2CCCC2O)c1O (stereo not drawn) | 25 to 74%
COc1ccnc(C(=O)NCC#Cc2ccccc2)c1O | 25 to 74%
COc1ccnc(C(=O)NC2CC(C)(C)C(OC(=O)c3ccccc3)C(C)(C)C2)c1O (stereo not drawn) | 25 to 74%
COc1ccnc(C(=O)NC2CC(C)(C)C=CC=C2C)c1O (stereo not drawn) | 25 to 74%
COc1ccnc(C(=O)NC2CCC(Sc3ccccc3)CC2)c1O (stereo not drawn) | 25 to 74%
COc1ccnc(C(=O)N[C@H]2CC3CC2C[C@@H]3COCc2cccc(C(F)(F)F)c2)c1O (stereo partly drawn) | 25 to 74%
COc1ccnc(C(=O)NC2CC(C)(C)C3OC3[C@H](C)[C@H]2C)c1O (stereo partly drawn) | 25 to 74%
